Origin of values: patent US20230405023A1

Experiment: Open-label randomized pharmacokinetic drug-drug interaction study: plasma PK of Compound A alone or with phenytoin
Assay type: in vivo, human
Settings: human, plasma, oral, 100 mg, Compound A 100 mg alone, truncated sampling; read-out: Cmax
measured_endpoint: Cmax (ng/mL)

smiles_entry=Cc1cc(S(=O)(=O)Nc2cscn2)c(F)cc1N(C)[C@H]1CCN(Cc2ccccc2)C1 units=ng/mL test_result=3220

----------
Test: Open-label randomized pharmacokinetic drug-drug interaction study: plasma PK of Compound A alone or with phenytoin
Type: in vivo, human
Details: human, plasma, oral, 100 mg, Compound A with phenytoin 100 mg TID x 10 days, truncated sampling; read-out: Tmax
measured_endpoint: Tmax (h)

compound="Cc1cc(S(=O)(=O)Nc2cscn2)c(F)cc1N(C)[C@H]1CCN(Cc2ccccc2)C1 [Compound A]" measured_endpoint=Tmax test_result=1
